Experiment: in vivo
Design: species or system female Beagle dogs
Details: female, Beagle, dog, iv, 2 mg/kg
Description: For comparison, an IV formulation was also tested. Table 18 summarizes the results of the experiments of administration of the various oral formulations to female beagle dogs.
measure: Cmax (ng/mL)
Give the quantity in ng/mL, number only.

Record COc1ccc(-c2ccc(Cn3c(CC(C)(C)C(=O)O)c(SC(C)(C)C)c4cc(OCc5ccccn5)ccc43)cc2)cn1 , field Cmax: 3200

====

Assay: Phase 1 study in healthy human volunteers, plasma pharmacokinetics
Format: in vivo
Conditions: both sexes, human, single dose 300 mg, oral solution, fasted healthy subjects, read-out: AUC0-24 (hr * mM) AVE ± SD
measure: AUC(0-t) (µM·h)
Give the quantity in µM·h, number only.

Record COc1ccc(-c2ccc(Cn3c(CC(C)(C)C(=O)O)c(SC(C)(C)C)c4cc(OCc5ccccn5)ccc43)cc2)cn1 , field AUC(0-t): 25.8

====

Assay: in vivo
Set-up: species or system female Beagle dogs
Settings: female, Beagle, dog, iv, 2 mg/kg
measure: Tmax (min)
Give the quantity in min, number only.

Record COc1ccc(-c2ccc(Cn3c(CC(C)(C)C(=O)O)c(SC(C)(C)C)c4cc(OCc5ccccn5)ccc43)cc2)cn1 , field Tmax: 1.02

====

Assay: Phase 1 study in healthy human volunteers, plasma pharmacokinetics
Assay type: in vivo
Conditions: both sexes, human, single dose 300 mg, oral solution, fasted healthy subjects, read-out: t1/2 (hr) AVE ± SD (converted)
measure: half-life (h)
Give the quantity in h, number only.

Record COc1ccc(-c2ccc(Cn3c(CC(C)(C)C(=O)O)c(SC(C)(C)C)c4cc(OCc5ccccn5)ccc43)cc2)cn1 , field half-life: 12.3

====

Test: Phase 1 study in healthy human volunteers, plasma pharmacokinetics
Assay type: in vivo
Conditions: both sexes, human, single dose 1000 mg, oral solution, fasted healthy subjects, read-out: t1/2 (hr) AVE ± SD (converted)
measure: half-life (h)
Give the quantity in h, number only.

Record COc1ccc(-c2ccc(Cn3c(CC(C)(C)C(=O)O)c(SC(C)(C)C)c4cc(OCc5ccccn5)ccc43)cc2)cn1 , field half-life: 7.6

====

Assay: Phase 1 study in healthy human volunteers, plasma pharmacokinetics
Format: in vivo
Settings: both sexes, human, single dose 150 mg, oral solution, fasted healthy subjects, read-out: Cmax (mM) AVE ± SD
measure: Cmax (mM)
Give the quantity in mM, number only.

Record COc1ccc(-c2ccc(Cn3c(CC(C)(C)C(=O)O)c(SC(C)(C)C)c4cc(OCc5ccccn5)ccc43)cc2)cn1 , field Cmax: 0.0018

====

Assay: Phase 1 study in healthy human volunteers, plasma pharmacokinetics
Assay type: in vivo
Details: male, human, multiple dose phase, Day 1, 450 mg, oral solution, read-out: t1/2 (hr) AVE ± SD (converted)
measure: half-life (h)
Give the quantity in h, number only.

Record COc1ccc(-c2ccc(Cn3c(CC(C)(C)C(=O)O)c(SC(C)(C)C)c4cc(OCc5ccccn5)ccc43)cc2)cn1 , field half-life: 13.2

====

Test: Phase 1 study in healthy human volunteers, plasma pharmacokinetics
Type: in vivo
Settings: both sexes, human, single dose 50 mg, oral solution, fasted healthy subjects, read-out: Tmax (hr) AVE ± SD
measure: Tmax (h)
Give the quantity in h, number only.

Record COc1ccc(-c2ccc(Cn3c(CC(C)(C)C(=O)O)c(SC(C)(C)C)c4cc(OCc5ccccn5)ccc43)cc2)cn1 , field Tmax: 3
